# assay details: Circular dichroism of Lacripep acetate salt vs dodecylphosphocholine form in phosphate buffer (Example 2)
# Assay type: physicochemical
# reported conditions: CD, 0.2 mg/ml, 10 mM phosphate, 137 mM NaCl, 2.7 mM KCl buffer pH 7.4, 35° C.; dpC forms with 10 mM dodecylphosphocholine
# Protocol: Lacripep™ (SEQ ID NO:1) was synthesized either without (unmodified, KQFIENGSEFAQKLLKKFS) or with (modified, Ac-KQFIENGSEFAQKLLKKFS-NH2)N-terminal acetylation and C-terminal amidation as an acetate salt. The compounds (0.2 mg/ml) were reconstituted in 10 mM phosphate, 137 mM NaCl, 2.7 mM KCl buffer, pH 7.4 with 10 mM dodecylphosphocholine for circular dichroism. […]
Ends that are not written are not given here.
reported endpoint: alpha helicity (%)
Express your answer in %, writing the number without its unit.

substance	measurement unit	alpha helicity
KQFIENGSEFAQKLLKKFS [unmodified acetate salt form] (not fully specified (N-terminus, C-terminus); also: acetate salt) [Lacripep without N-terminal acetylation and C-terminal amidation, acetate salt]	%	27
Ac-KQFIENGSEFAQKLLKKFS-NH2 [modified dpC form] (also: dpC form) [terminally modified Lacripep constrained with 10 mM dodecylphosphocholine]	%	100
KQFIENGSEFAQKLLKKFS [unmodified dpC form] (not fully specified (N-terminus, C-terminus)) [unmodified Lacripep constrained with 10 mM dodecylphosphocholine]	%	92

With those in mind, consider the next substance.
For record Ac-KQFIENGSEFAQKLLKKFS-NH2 [modified acetate salt form] (also: acetate salt) [Lacripep with N-terminal acetylation and C-terminal amidation, acetate salt] the listed alpha helicity is 28
